Property: IC50; scope: individual compounds
System: Multiple myeloma tumor cells (H929)
TEST: In vitro cytotoxicity, MTT assay, 48 hours exposure
Format: cell-based
EXPERIMENTAL CONDITIONS: Homo sapiens, NCI-H929, MTT cell viability
MEASUREMENT LABEL: IC50

Cc1c(-c2c(-c3ccc(F)o3)sc3ncnc(O[C@H](C(=O)O)C(F)(F)c4ccccc4OCc4ccnn4CC(F)(F)F)c23)ccc(OCCN2CCN(C)CC2)c1Cl [Compound 103] :: > 10 nM
Cc1c(-c2c(-c3ccc(F)o3)sc3ncnc(O[C@H](Cc4ccccc4OCc4ccnn4CC(F)(F)F)C(=O)O)c23)ccc(OCCN2CCN(C)CC2)c1Cl [II, reference compound] :: > 10 nM
Cc1c(-c2c(-c3ccc(F)o3)sc3ncnc(O[C@@H](C(=O)O)C(F)(F)c4ccccc4OCc4ccnn4CC(F)(F)F)c23)ccc(OCCN2CCN(C)CC2)c1Cl [Compound 102] :: > 10 nM

* * *

Mcl-1 protein (Homo sapiens) measurements of pIC50, listed per entry.
Sequence (Q07820 whole entry): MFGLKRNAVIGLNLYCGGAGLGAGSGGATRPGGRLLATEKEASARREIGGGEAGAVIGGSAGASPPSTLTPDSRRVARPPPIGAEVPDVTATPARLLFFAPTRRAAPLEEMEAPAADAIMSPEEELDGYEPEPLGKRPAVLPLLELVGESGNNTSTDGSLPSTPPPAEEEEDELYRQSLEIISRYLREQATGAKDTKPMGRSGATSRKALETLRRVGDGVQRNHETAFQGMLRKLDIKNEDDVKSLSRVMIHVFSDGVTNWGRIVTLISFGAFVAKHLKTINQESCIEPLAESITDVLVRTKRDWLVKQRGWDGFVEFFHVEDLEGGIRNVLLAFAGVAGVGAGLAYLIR
pIC50: −log10 of the molar value.
MEASUREMENT LABEL: pIC50

Cc1c(-c2c(-c3ccc(F)o3)sc3ncnc(O[C@H](C(=O)O)C(F)(F)c4ccccc4OCc4ccnn4CC(F)(F)F)c23)ccc(OCCN2CCN(C)CC2)c1Cl :: 8.00 to 9.00
Cc1c(-c2c(-c3ccc(F)o3)sc3ncnc(O[C@@H](C(=O)O)C(F)(F)c4ccccc4OCc4ccnn4CC(F)(F)F)c23)ccc(OCCN2CCN(C)CC2)c1Cl :: > 9.00
